neutralization IC50 reference
tested_on: HIV-1 Env of Q842.d12 (HIV-1)
protocol_notes: cell-based or functional assay

Would you please look over these solved cases?
Query: Provide one value: measured neutralization IC50 of CAP256-VRC26.03 (antibody, V domains shown) VH: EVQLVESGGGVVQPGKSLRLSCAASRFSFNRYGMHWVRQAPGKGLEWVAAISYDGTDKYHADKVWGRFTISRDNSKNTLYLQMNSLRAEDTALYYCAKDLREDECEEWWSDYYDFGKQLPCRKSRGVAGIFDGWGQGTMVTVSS VL: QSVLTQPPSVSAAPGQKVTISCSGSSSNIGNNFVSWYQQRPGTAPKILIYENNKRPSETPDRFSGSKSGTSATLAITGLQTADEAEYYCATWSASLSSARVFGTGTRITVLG
Result: > 50 µg/mL

Query: Write down neutralization IC50 measured for item CAP256-VRC26.06 (antibody, V domains shown) VH: EVQLIESGGGVVQPGRSLRLSCGASGFSFNNYGMHWVRQAPGKGLEWVAGISFAGIKKYYGTSVKGRFTISRDNSKNNFYLQMNSLRVEDTALYYCARDLRELECEEWTLYNYYDFGSRGPCVDPRGVAGSFDVWGQGTMVTVSS VL: QSVLTQPPSVSAAPGQKVTISCSGSTSKIGQNSVSWYQQLPGTAPKLLIYENDRRPSGTPDRFSGSKSGTSATLAITGLQTGDEAEYYCETWDGSGGVFGTGTKVTVLG
Result: > 50 µg/mL

Query: Provide neutralization IC50 value for the following binder: CAP256-VRC26.04 (antibody, V domains shown) VH: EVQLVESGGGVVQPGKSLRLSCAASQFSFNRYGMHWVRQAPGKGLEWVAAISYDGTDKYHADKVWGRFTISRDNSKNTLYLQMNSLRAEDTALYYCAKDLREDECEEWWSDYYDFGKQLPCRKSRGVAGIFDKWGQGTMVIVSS VL: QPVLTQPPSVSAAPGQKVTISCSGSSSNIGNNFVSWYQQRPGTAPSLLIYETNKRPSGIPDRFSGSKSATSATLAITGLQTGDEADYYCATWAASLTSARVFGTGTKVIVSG
Result: > 50 µg/mL

Query: Using the record for CAP256-VRC26.11 (antibody, V domains shown) VH: EVQLVESGGGVVPPGKSLTLSCVASRFTFSAFGMHWVRQAPGKGLEWVASISFAGIKKYYADSVKGRFSISRDNSNTLFLQMNGLRGEDTGLYHCVKDMRELECEEWASDYYDFGKPQPCLDRRGVSGISAWWGPGTMVTVSS VL: QSVLTQPPSVSAAPGQNVTISCSGPPSHIEKNDVSWYQRLPGMAPKMVIYESKRRPLGIPVRFSASRSGSSATLVITGLQTADEADYYCGTWDGRMNFGTGTTVSVLG , state its measured neutralization IC50.
Result: > 50 µg/mL

Query: For the binder CAP256-VRC26.05 (antibody, V domains shown) VH: EVQLVESGGGVVQPGRSLRLSCAASHFSLSSYGMHWVRQAPGKGLEWVTGISFAGTKTYYGDSVRGRFTVSRDISKNTLFLQMNSLRPDDTAMYYCARDQRYYECEEWASDYYDFGREQPCLDPRGVVGIFDLWGQGTMVTVSS VL: QSALTQPPSVSAAPGQKVTISCSGNIGNNYVSWYQQVPGTAPKLLIYENNKRPSGIPDRFSGSKSGTSATLVITGLQTGDEADFYCGTWGGSLRTGGVLGTGTRVTVLG , give its measured neutralization IC50 value.
Result: > 50 µg/mL

Turning now to a further binder:
Query: Give me measured neutralization IC50, please, for this binder: CAP256-VRC26.08 (antibody, V domains shown) VH: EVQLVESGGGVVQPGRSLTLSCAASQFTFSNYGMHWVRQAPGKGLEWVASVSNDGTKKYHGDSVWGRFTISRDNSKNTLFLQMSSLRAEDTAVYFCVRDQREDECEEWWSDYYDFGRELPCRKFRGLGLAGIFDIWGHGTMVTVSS VL: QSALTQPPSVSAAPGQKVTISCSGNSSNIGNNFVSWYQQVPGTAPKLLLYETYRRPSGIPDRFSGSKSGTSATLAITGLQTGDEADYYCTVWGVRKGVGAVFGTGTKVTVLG
Result: 40.4 µg/mL
